Value source: the supplement of paper PMC5579334

Tested on: HSC1 (primary human Schwann cells)
Assay: drug sensitivity score (DSS, CellTiter-Glo viability, 72 h) (DSS (dimensionless)); higher = more sensitive; extreme values may be limits of the assay
assay endpoint: drug sensitivity score
Please reply with the number alone, leaving off any unit.

Past entries and their recorded results:
compound	assay endpoint	quantitative result
Oc1ccc2c(c1)CC[C@H](c1ccccc1)[C@@H]2c1ccc(OCCN2CCCC2)cc1 [Lasofoxifene] (max concentration tested 1000 nM)	drug sensitivity score	0
NC1(c2ccc(-c3nc4ccn5c(=O)[nH]nc5c4cc3-c3ccccc3)cc2)CCC1 [MK-2206] (max concentration tested 1000 nM)	drug sensitivity score	0.083

Below: the item to evaluate.
Param item = CC(C)(C)c1cc(NC(=O)Nc2ccc(-c3cn4c(n3)sc3cc(OCCN5CCOCC5)ccc34)cc2)no1 [Quizartinib] (max concentration tested 1000 nM) ; retrieve measured drug sensitivity score.
3.73
